molecular target: GST-PDZ1+2+3 fusion protein of hDlg (human, UniProt Q12959 201-584); assay: SPR
Sequence (Q12959 201-584): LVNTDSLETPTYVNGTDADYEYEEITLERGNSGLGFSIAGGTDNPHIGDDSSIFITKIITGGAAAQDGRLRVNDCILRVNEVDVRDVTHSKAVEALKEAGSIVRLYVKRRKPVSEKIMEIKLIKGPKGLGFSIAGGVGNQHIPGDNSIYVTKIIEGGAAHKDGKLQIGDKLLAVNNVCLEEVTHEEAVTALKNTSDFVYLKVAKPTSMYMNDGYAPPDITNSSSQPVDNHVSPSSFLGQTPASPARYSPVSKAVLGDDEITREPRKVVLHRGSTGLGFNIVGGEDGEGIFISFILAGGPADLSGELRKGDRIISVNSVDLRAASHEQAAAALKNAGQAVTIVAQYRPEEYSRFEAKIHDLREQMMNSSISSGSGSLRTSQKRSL
Where no end group is shown, it is not given here. The star is where a group is joined. Biotin = O=C1N[C@H]2[C@H](CS[C@H]2CCCCC(=O)*)N1
Experimental endpoint: Kd

Q: Which Kd is reported for this binder? Biotin-SGSGDKNNCSNAKAVETDV [biotinylated synthetic peptide of the COOH terminus of the Kv1.4 potassium channel]
Result: 160 nM
